Biological target: chromodomain of CBX5 (human)
Sequence (Q9UN86 18-75): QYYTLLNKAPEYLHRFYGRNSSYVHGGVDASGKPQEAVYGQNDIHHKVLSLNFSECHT
Test: AlphaScreen or HTRF
Square brackets hold non-standard residues; d marks the D form. * marks the point of attachment. Lys(Me3) = C[N+](C)(C)CCCC[C@H](N)C(=O)O; Bz = O=C(c1ccccc1)*

binder	IC50
Bz-AL[Lys(Me3)]S-OMe (SMILES COC(=O)[C@H](CO)NC(=O)[C@H](CCCC[N+](C)(C)C)NC(=O)[C@H](CC(C)C)NC(=O)[C@H](C)NC(=O)c1ccccc1) [compound 4]	> 60 µM
Bz-GFAL[Lys(Me3)]S-OMe [compound 6]	> 60 µM
Bz-Ala-Leu-[Lys(Me3)]-NHMe (SMILES CNC(=O)[C@H](CCCC[N+](C)(C)C)NC(=O)[C@H](CC(C)C)NC(=O)[C@H](C)NC(=O)c1ccccc1) [compound 3]	> 60 µM
Bz-GFALKS-OMe (not fully specified (residues 3, 5)) [compound 8]	> 60 µM
Bz-FAL[Lys(Me3)]S-OMe [compound 5]	49 µM
